Sourced from PubChem BioAssay (NCI)

Tested on: NCI-H226 lung
Assay: NCI-60 one-dose screen, 48 h (100 = growth as untreated, 0 = no growth, -100 = all killed)
Conditions: 10 µM unless noted
Description: Growth inhibition of the NCI-H226 human Non-Small Cell Lung tumor cell line is measured as a screen for anti-cancer activity. Cells are grown in 96 well plates and exposed to the test compound for 48 hours. Compounds are tested at a single concentration, which is 10^-5 M for most compounds. The reported endpoint is percent growth (GI% or GIPRCNT), where numbers from 0 - 100% represent growth inhibition, and numbers from -100% - 0 represent cell death. […]
About 83,000 compounds went through this panel and 20% of them were active in at least one assay; those are over-represented in the sample as a whole.
Strictly below 90% in growth: Met. Otherwise: Not met.

- compound: "CCCOC(=O)N[C@H]1CCc2c(Cl)c(OC)c(OC)c(OC)c2-c2ccc(SC)c(=O)cc21"
  group: "Met"

Record COc1cc(CC(=O)c2ccc(O)c(OC)c2)ccc1O : is its growth strictly below 90%?
Met

###

Tested on: UACC-257 melanoma
Assay: NCI-60 one-dose screen, 48 h (100 = growth as untreated, 0 = no growth, -100 = all killed)
Settings: 10 µM unless noted
Method: Cells are grown in 96 well plates and exposed to the test compound for 48 hours. Compounds are tested at a single concentration, which is 10^-5 M for most compounds. The reported endpoint is percent growth (GI% or GIPRCNT), where numbers from 0 - 100% represent growth inhibition, and numbers from -100% - 0 represent cell death. For example, a value of 40 represents 60% growth inhibition. A value of 0 means no net growth occurred over the course of the experiment. […]
About 83,000 compounds went through this panel and 20% of them were active in at least one assay; those are over-represented in the sample as a whole.
Quick reference: growth of the listed items.
Return type: number; implicit unit %.

Consider the worked cases shown below.
- molecule: "O=C(NO)c1ccc(-n2nc(-c3ccccc3)c3ccccc32)cc1"
  growth [%]: 78.5
- molecule: "COc1ccc(C(=O)/C=C/c2cc3ccccc3n3nnnc23)cc1"
  growth [%]: 114
- molecule: "CN[C@@H](C)C(=O)N[C@H]1CCS[C@H]2CC(C)(C)[C@@H](C(=O)N[C@H]3c4ccccc4C[C@H]3OCC#CC#CCO[C@@H]3Cc4ccccc4[C@@H]3NC(=O)[C@H]3N4C(=O)[C@@H](NC(=O)[C@H](C)NC)CCS[C@H]4CC3(C)C)N2C1=O"
  growth [%]: 101

Which growth is listed for Nc1c(C(=O)Nc2ccnc3ccccc23)sc2nc3c(cc12)CN(Cc1ccccc1)CC3 ?
78.8

Which growth is listed for N#C/C(=C\c1ccc(C(F)(F)F)cc1)c1cc2ccccc2[nH]1 ?
104

Which growth is listed for COc1cc(/C(C)=C(\c2ccc(Cl)cc2)c2ccc(OCCN3CCCC3)cc2)ccc1F ?
3.02

Which growth is listed for CC(=O)N1N=C(c2ccc(-n3ccc(C(F)(F)F)n3)c(F)c2)CC1c1ccc[nH]1 (stereo not drawn) ?
96.4

Which growth is listed for Cc1c(C)c([N+](=O)[O-])c(C)c([N+](=O)[O-])c1C ?
105

Which growth is listed for NS(=O)(=O)c1ccc(CCN2C(=O)C=CC2=O)cc1 ?
101

Which growth is listed for O=C1Nc2cc(-c3cccc([N+](=O)[O-])c3)ccc2/C1=C/c1ccc[nH]1 ?
107

Which growth is listed for COc1ccc(C(=O)CSc2nc(-c3cc(OC)ccc3OC)cc(-c3ccc(Cl)cc3)c2C#N)cc1 ?
58

Which growth is listed for CC[C@]12C=CCN3CC[C@@]4(c5cc(NC(=O)CCC(=O)O[C@H]6CC[C@H]7[C@@H]8CCC9=CC(=O)CC[C@@H]9[C@H]8CC[C@]67C)c(OC)cc5N(C)[C@H]4[C@@](O)(C(=O)OC)[C@@H]1OC(C)=O)[C@@H]32 ?
76.2

Which growth is listed for Cc1cc(Cl)nc(N(CCNc2ccnc3cc(Cl)ccc23)Cc2ccccn2)n1 ?
68.1

Which growth is listed for CCNC(=O)Oc1ccc(/C(=C(\C)c2ccccc2)c2ccc(OCCCN(C)C)cc2)cc1 ?
3.23

Which growth is listed for Cc1ccc(-c2csc(NC(=O)CSc3nc(-c4ccccc4)cc(=O)[nH]3)n2)cc1 ?
99.9

Which growth is listed for COc1ccc(C/C(=C(\C)c2ccc(OCCN3CCCC3)cc2)c2ccc(OCCN3CCCC3)cc2)cc1 ?
63.9

Which growth is listed for c1ccc(-c2c(-c3ccccc3)[n+](Cc3ccc4ccccc4c3)c(-c3cccc4ccccc34)n2Cc2ccc3ccccc3c2)cc1 ?
-42.5

Which growth is listed for Oc1ccc(C2c3ccccc3Oc3ccccc32)c2cccnc12 ?
3.42

###

Tested on: BT-549 breast
Assay: NCI-60 one-dose screen, 48 h
Conditions: 10 µM unless noted
The panel holds about 83,000 compounds, 20% with a hit somewhere; the sample as a whole holds those more often. The source made the active and inactive calls. The calls were made as follows: active = growth percent below 10; inactive = the rest.
Your response should consist of one outcome taken from active, inactive

- compound: "Cc1cc2c(C(=O)NCC#N)cccc2n1-c1nc2c(c(NCc3ccccc3)n1)CCCC2"
  measurement.target: "BT-549 breast"
  group: "active"
- compound: "N=C1C(c2nc3ccccc3s2)=C(O)CN1c1cc(Cl)cc(Cl)c1"
  measurement.target: "BT-549 breast"
  group: "inactive"
- compound: "COc1ccc(C/C(=C(\\C)c2ccc(OCCN3CCCC3)cc2)c2ccc(OCCN3CCCC3)cc2)cc1"
  measurement.target: "BT-549 breast"
  group: "inactive"
- compound: "COc1cc(/C(C)=C(\\c2ccc(Cl)cc2)c2ccc(OCCN(C)C)cc2)ccc1F"
  measurement.target: "BT-549 breast"
  group: "inactive"
- compound: "OC(c1cccc(C(F)(F)F)c1)c1cnccc1NC1CCCCC1 (stereo not given)"
  measurement.target: "BT-549 breast"
  group: "inactive"

Hello, I am checking results. What call was entered for Cc1c(C(=O)NCCC(=O)NO)sc2ncnc(Nc3ccc(F)c(Cl)c3)c12 ?
inactive

Hello, I am checking results. What call was entered for CNCCn1c(=O)c2cc(OC)c(OC)cc2c2ccc3cc4c(cc3c21)OCO4 ?
active

Hello, I am checking results. What call was entered for CNCCOc1nc2c3cnccc3cc(-c3cc(OC)c(OC)c(OC)c3)c2c2ccncc12 ?
active

Hello, I am checking results. What call was entered for Cn1c2ccccc2c2c3c(c4c5ccccc5n(C)c4c21)C(=O)OC3 ?
inactive

Hello, I am checking results. What call was entered for CCN(CC)c1ccc(/C=N/NC(=O)CSc2nc3ccccc3c(=O)n2Cc2ccc(S(N)(=O)=O)cc2)c(O)c1 ?
inactive

Hello, I am checking results. What call was entered for COc1c(Cl)c2c(c(OC)c1OC)-c1ccc(SC)c(=O)cc1[C@@H](NC(=O)OCC(F)(F)F)CC2 ?
active

###

System: A549/ATCC NSCLC
Assay: NCI-60 one-dose screen, 48 h (100 = growth as untreated, 0 = no growth, -100 = all killed)
Details: 10 µM unless noted
This is part of a sample that, as a whole, favours compounds with a hit. Of some 83,000 tested, about 20% had one in any assay.
Quick reference: growth of the listed items.
Return type: number; implicit unit %.

- compound: "COc1cc2c(c(OC)c1OC)CCC(c1cccc(NC(=O)c3cccc(Br)c3)c1)O2 (stereo not drawn)"
  measurement.target: "A549/ATCC NSCLC"
  unit.label: "%"
  growth: 81.2

Which growth is listed for CCCCCCNC(=O)Nc1ccc2cc3ccc(NC(=O)NCCCCCC)cc3nc2c1 ?
23.7

Which growth is listed for N#Cc1c(NCc2ccccc2I)sc2c1CCCCC2 ?
85.7

Which growth is listed for COc1ccc(OC)c(-c2cc(-c3ccc(Cl)cc3)c3c(N)c(C(=O)c4ccc(Cl)cc4)sc3n2)c1 ?
97.3

Which growth is listed for CNCCn1c(=O)c2cc(OC)c(OC)cc2c2ccc3cc4c(cc3c21)OCO4 ?
-81.2

Which growth is listed for Clc1ccc(-c2ccc(CNCC3CCNCC3)o2)c(-c2ccccc2)c1 ?
-79.5

Which growth is listed for O=C1Nc2cc(-c3cccc([N+](=O)[O-])c3)ccc2/C1=C/c1ccc[nH]1 ?
101

Which growth is listed for COc1cc2oc(-c3cccc(C(=O)Nc4ccc(Br)cc4)c3)cc(=O)c2c(OC)c1OC ?
52.3

###

Tested on: NCI-H460 lung
Experiment: NCI-60 one-dose screen, 48 h
Details: 10 µM unless noted
The panel holds about 83,000 compounds, 20% with a hit somewhere; the sample as a whole holds those more often. Activity calls are given as the source filed them. Rule for the calls: active = growth percent below 10; inactive = the rest.
Your response should consist of one outcome taken from 1.0 = active, 0.0 = inactive

Reference set (5 entries):
- compound: "COc1cc2c(=O)n(CCN)c3c4cc5c(cc4ccc3c2cc1OC)OCO5"
  group: 1.0
- compound: "O=C(c1ccccc1)N1N=C(c2ccc(-n3ccc(C(F)(F)F)n3)c(F)c2)CC1c1ccc[nH]1 (centres undefined)"
  group: 0.0
- compound: "O=C1Nc2cc(Cl)ccc2/C1=C\\c1c(-c2ccc(F)cc2)nc2ccccn12"
  group: 1.0
- compound: "COc1ccc(C(=O)c2nc3ccccc3n2CC(=O)c2ccc(Cl)cc2)cc1"
  group: 0.0
- compound: "Nc1n[nH]c2cccc(C#Cc3cccc(C(=O)Nc4cc(CN5CCOCC5)cc(C(F)(F)F)c4)c3)c12"
  group: 0.0

Hello, I am checking results. What call was entered for COC(=O)c1ccc2c(c1)[n+](=O)c(C(C)=O)c(C(F)(F)F)n2[O-] ?
1.0

Hello, I am checking results. What call was entered for COc1cc(/C=C2\COc3ccc(-c4ccccc4)cc3C2=O)cc(OC)c1 ?
0.0

Hello, I am checking results. What call was entered for COc1cc(OC)cc(C(=O)C[n+]2cccc3cc[nH]c32)c1 ?
0.0
